Protocol Text: inhibitors of cytokine-induced beta cell apoptosis, primary screen, luminescence (AID 435005);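 further: 0% = cytokine-treated negative control wells and 100% = positive control rescue; higher means more ATP so stronger rescue from cytokine killing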
Measurement Context: INS-1E cytokine-induced death, ATP luminescence, 48 h; stronger effect = higher value; percent of positive-control rescue, neutral wells zero; concentration not given here
The whole screen tested about 300,000 compounds, of which about 2,400 (0.8%) were called active. Shown is part of a subset that was picked to be rich in actives.
Quantity Kind: protection from apoptosis (%)
Numbers only, in %.

Solved entries (count: 4):
[[record]]
molecule = "CCOC(=O)c1ccc(NC(=O)Cn2nnc(-c3ccc(C)cc3)n2)cc1"
quantity_kind = "protection from apoptosis"
recorded_result = 3.31

[[record]]
molecule = "CCCSc1ccc([C@H]2N[C@@](Cc3ccccc3)(C(=O)OC)[C@H]3C(=O)N(C)C(=O)[C@@H]23)cc1"
quantity_kind = "protection from apoptosis"
recorded_result = -4.97

[[record]]
molecule = "CCCc1nnc(SCC(=O)Nc2ccc(C(=O)OCC)cc2)o1"
quantity_kind = "protection from apoptosis"
recorded_result = 1.98

[[record]]
molecule = "CC1CCCCC1NC(=O)COc1ccc(C#N)cc1 (stereo not given)"
quantity_kind = "protection from apoptosis"
recorded_result = 0.693


Please find the next molecule below.
Looking for the measured protection from apoptosis of CCOC(=O)c1ccc(NC(=O)Cn2cnc3cc(C)c(C)cc32)cc1 , can you help? 105

###

So I've got a bunch of compounds here, and I need their protection from apoptosis values.
Protocol Text: inhibitors of cytokine-induced beta cell apoptosis, primary screen, luminescence (AID 435005);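 further: 0% = cytokine-treated negative control wells and 100% = positive control rescue; higher means more ATP so stronger rescue from cytokine killing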
Measurement Context: INS-1E cytokine-induced death, ATP luminescence, 48 h; stronger effect = higher value; percent of positive-control rescue, neutral wells zero; concentration not given here
Screen size: about 300,000 compounds; about 2,400 (0.8%) were called active. Shown is part of a subset that was picked to be rich in actives.
One number for each entry, in %.

Past entries and their recorded results:
[[record]]
compound = "COc1ccccc1NC(=O)/C=C/C(=O)O"
readout_unit = "%"
recorded_result = -6.73

[[record]]
compound = "CC(=O)Nc1ccc(S(=O)(=O)Nc2ccc(N3CCOCC3)c(F)c2)cc1"
readout_unit = "%"
recorded_result = 2.71

[[record]]
compound = "CCCCCCc1cc2cc(-c3nnc(-c4ccccc4)o3)c(=O)oc2cc1O"
readout_unit = "%"
recorded_result = 119

[[record]]
compound = "CCCOc1ccc(Cc2c(O)nc(SC)[nH]c2=O)cc1C"
readout_unit = "%"
recorded_result = -2.93

[[record]]
compound = "CCCOc1ccc(C(=O)NCCc2ccccc2)cc1"
readout_unit = "%"
recorded_result = 9.99

[[record]]
compound = "COc1ccc(C(=O)NC2CCCc3c2cnn3-c2cccc(C)c2C)c(OC)n1 (stereo not drawn)"
readout_unit = "%"
recorded_result = 32.4


Field: protection from apoptosis. Fill in for each record below.
1. O=C(Nc1cccc(S(=O)(=O)N2CCCCC2)c1)c1cncc(Br)c1
2. CCOC(=O)Cn1c(-c2cccnc2Cl)nc2ccccc21
3. COc1ccc(C2=Nn3c(nnc3-c3ccccc3OC)SC2)cc1OC1CCCC1
4. COc1cc(/C=C/C(=O)Nc2ccc(OC)c(S(=O)(=O)N3CCOCC3)c2)ccc1OCC#N
5. CSc1ccc(NC(=O)/C=C/C(=O)O)cc1
6. NC(=O)CSc1c[nH]c2ccccc12

[-1.23, -2.69, 31.3, 4.79, -4.41, 0.633]

Provide protection from apoptosis for all items below, preserving their order.
1. Nc1nonc1-n1nnc(C(=O)N/N=C/c2ccccc2O)c1CN1CCCC1
2. Cc1nc2ccc(NC(=O)c3cccc(S(=O)(=O)N4CCOCC4)c3)cc2s1
3. COc1ccc(-c2nn(-c3ccccc3)cc2/C=N/Nc2ccccn2)cc1OC
4. CCCCCCCCCCOC(=O)Cn1c(COc2cccc(OC)c2)[n+](C)c2ccccc21
5. O=C(NCCCN1CCOCC1)c1cn(-c2ccccc2)nc1-c1ccc(F)cc1
6. Cc1ccc(-n2ncc3c2CCCC3NC(=O)c2cnccn2)cc1C (stereo not drawn)

[77.1, -1.06, 59.9, 109, -0.73, 2.44]

Hi team, please reply with protection from apoptosis for each item in this list.
1. COc1ccc(S(=O)(=O)N(C)C[C@@H]2Oc3ccc(NC(=O)Nc4c(C)noc4C)cc3C(=O)N([C@H](C)CO)C[C@@H]2C)cc1
2. O=C(NC1CCCC1)C(=O)c1c[nH]c2ccccc12
3. O=C(NCc1ccc2c(c1)OCO2)c1cc([N+](=O)[O-])ccc1N1CCOCC1
4. COc1cccc(OCCCN2CCCCCC2)c1
5. O=C(Nc1ccccc1)N1CCC(C(=O)N2CCN(Cc3ccccc3)CC2)CC1
6. O=C(Nc1cccc(S(=O)(=O)N2CCCC2)c1)c1cncc(Br)c1
7. O=C(Nc1cc(S(=O)(=O)Nc2ccc(Cl)cc2)ccc1O)c1ccc(F)cc1F

4.1
-2.17
12.9
-3.45
-2.8
-6.13
3.17

Parameters: items (list). Returns: protection from apoptosis for each item.
1. Cc1ccc(OCCCn2c(=O)oc3ccccc32)cc1
2. CCn1c(=N)n(CC(=O)c2cccc(OC)c2)c2ccccc21
3. CCCCCCCCCCOC(=O)Cn1c(COc2ccc(C)cc2)[n+](C)c2ccccc21
4. Nn1c(SCC(=O)NC2CCCc3ccccc32)nnc1C1CC1 (stereo not drawn)
5. O=C(COC(=O)c1ccc(F)cc1)NCC1COc2ccccc2O1 (stereo not drawn)

[1.16, -5.87, 112, -5.42, -5.32]

Give protection from apoptosis for each of the items listed below.
1. O=S(=O)(NCC1CN(S(=O)(=O)c2ccc3c(c2)OCCO3)C1)c1c(F)cccc1F
2. Cc1ccc(SCc2c(C(=O)N/N=C/C3CC=CCC3)nnn2-c2nonc2N)cc1 (stereo not drawn)
3. NS(=O)(=O)c1ccc(CNC(=S)NC(=O)c2ccco2)cc1
4. O=[N+]([O-])c1ccc(O)c(/C=N/Nc2ccccc2[N+](=O)[O-])c1
5. COc1ccc(C)cc1NC(=O)CSc1cccc[n+]1[O-]
6. CN(Cc1ccc(CNC[C@H]2O[C@@H](n3cnc4c(N)ncnc43)[C@H](O)[C@@H]2O)o1)S(C)(=O)=O
7. Cc1ccc(SCc2c(C(=O)N/N=C/c3cccnc3)nnn2-c2nonc2N)cc1

1. -0.452
2. -2.44
3. 2.51
4. 36.9
5. -1.83
6. -10.1
7. -3.56

Lab note: each compound below needs its protection from apoptosis filled in.
1. CC(=O)Nc1ccc(S(=O)(=O)Nc2ccc(N3CCCCC3)cc2)cc1
2. Cc1cc(C(=O)NC2CCCc3c2cnn3-c2cccc(C)c2C)c(C)o1 (stereo not drawn)
3. CCn1c(=O)c([N+](=O)[O-])c(NCc2ccc3c(c2)OCO3)c2ccccc21
4. Cc1c(CC(=O)NCCCCCC(=O)O)c(=O)oc2cc3occ(-c4ccccc4)c3cc12
5. Oc1ccc(Br)cc1/C=N/Nc1ccccn1
6. O=C(c1ccccc1)N1CCN(c2ccc([N+](=O)[O-])c(NCc3ccco3)c2)CC1

119
41.6
1.81
-7.43
133
13.2

Sourced from PubChem BioAssay AID435005
